# ASSAY_PROTOCOL: cell viability in Huh7 cells, primary screen, cytotoxicity control for HCV replication inhibitor project, CellTiter-Glo luminescence, basal, 48 h (AID 1143);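 further: Huh7 hepatoma cells carrying a hepatitis C replication reporter with no stimulus; test concentration not given here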
# EXPERIMENTAL_PARAMETERS: Huh7 HCV replicon, higher = more signal, called active from +8 up or from −8 down
I would appreciate it if you labelled entries fulfilled when z-score is -0.9 or higher, otherwise not fulfilled.

[[record]]
compound = "N[C@@H](Cc1ccccc1)Cn1cc(C2(O)CCCCC2)nn1"
label_class = "fulfilled"

[[record]]
compound = "C=C(CCCC)/C(=C/C[C@H](OC(C)=O)c1cccc(OCCO)c1)c1cc(C(=O)OC)ccc1OC"
label_class = "fulfilled"

[[record]]
compound = "COC(=O)c1ccc([C@H](NC(=O)c2ccccc2)[C@]2(C)C[C@H]2C2CCCCC2)cc1"
label_class = "not fulfilled"

[[record]]
compound = "COCCOC(=O)N1C(=O)[C@@]2(c3cc(C#CCC(C(=O)OC)C(=O)OC)ccc31)[C@H](c1ccc(OCCO)cc1)N1[C@H](c3ccccc3)[C@H](c3ccccc3)OC(=O)[C@H]1[C@@H]2C(=O)N1CCCCCCC1"
label_class = "not fulfilled"

[[record]]
compound = "NC(=O)NCC#Cc1ccc2c(c1)[C@]1(C(=O)N2)[C@H](C(=O)N2CCCCCCC2)[C@H]2C(=O)O[C@H](c3ccccc3)[C@H](c3ccccc3)N2[C@@H]1c1ccc(O)cc1"
label_class = "fulfilled"

[[record]]
compound = "CC(C)[C@@H](C(=O)O)n1cc(-c2ccccc2)nn1"
label_class = "fulfilled"

[[record]]
compound = "COC(=O)[C@@]1(Cc2ccc(F)cc2)[C@H]2c3cc(C(=O)N4CCCC4)n(CCO)c3C[C@H]2CN1C(=O)c1ccccc1"
label_class = "fulfilled"

[[record]]
compound = "CO[C@H]1O[C@H](CO)[C@@H](OC(=O)Nc2ccccc2)[C@@H]2OC(=O)[C@H](Cc3ccccc3)C/C=C/C[C@@H](Cc3ccccc3)C(=O)O[C@@H]12"
label_class = "not fulfilled"

[[record]]
compound = "COC(=O)[C@H](Cc1ccc(O)cc1)N1CC2=CCCC=C[C@@H]2[C@H]1[C@H](O)Cc1ccccc1"
label_class = "fulfilled"

[[record]]
compound = "C=CCC(OC(C)=O)[C@@H]1[C@@H](N(Cc2cc3ccccc3o2)C(=O)c2cccc3ccccc23)c2cc(OCCCO)ccc2N1C(=O)c1ccc2ccccc2c1 (some centres undefined)"
label_class = "not fulfilled"

[[record]]
compound = "CN(C)C(=O)[C@]1(Cc2ccccc2CN=[N+]=[N-])N=C(c2ccc(OCCCO)cc2)O[C@@H]1c1ccccc1N=[N+]=[N-]"
label_class = "not fulfilled"

[[record]]
compound = "CN(C)C(=O)[C@]1(Cc2ccccc2)N=C(c2ccc(OCCCO)cc2)O[C@@H]1c1ccccc1"
label_class = "not fulfilled"


---

# System: Inhibin beta A chain (activin A)
# ASSAY_PROTOCOL: INHBA (activin A) binders on microarrays, primary screen, biochemical, small-molecule microarray, 635 nm fluorescence scan (AID 1107);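 further: mouse activin A protein probed at 4.33 µg/mL on printed slides; score merges bound-protein fluorescence near 667 nm with spot signal-to-noise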
# EXPERIMENTAL_PARAMETERS: small-molecule microarray binding, higher = more signal
I would appreciate it if you labelled entries rule met when composite z-score is 0.5 or higher, otherwise rule not met.

[[record]]
compound = "C=CCC(OC(C)=O)[C@@H]1[C@@H](N(Cc2ccc(-c3ccccc3)cc2)C(=O)c2ccc(-c3ccccc3)cc2)c2cc(OCCCO)ccc2N1C(=O)c1ccc2ccccc2n1 (some centres undefined)"
label_class = "rule met"

[[record]]
compound = "O=C(NCC(F)(F)F)[C@@H]1c2ccccc2C(=O)N(CC23CC4CC(CC(C4)C2)C3)[C@H]1c1ccc(CO)cc1"
label_class = "rule not met"

[[record]]
compound = "C=CCC(OC(C)=O)[C@@H]1[C@@H](N(Cc2ccc(-c3cccc(C(F)(F)F)c3)o2)C(=O)Cc2ccc(OC)cc2)c2cc(OCCCO)ccc2N1C(=O)c1ccc2ccccc2n1 (some centres undefined)"
label_class = "rule met"

[[record]]
compound = "C=C(/C(=C/C[C@@H](OC(C)=O)c1ccccc1OCCO)c1cc(C(=O)OC)ccc1OC)C(C)C"
label_class = "rule met"

[[record]]
compound = "COc1ccc(CC[C@H](O)c2cccc(OCC(=O)OC(C)(C)C)c2)cc1"
label_class = "rule not met"

[[record]]
compound = "Cc1ccc(S[C@]2(C(=O)NCCN3CCOCC3)CC(=O)N(C3CCCCC3)[C@@H]2c2ccc(CO)cc2I)cc1"
label_class = "rule met"

[[record]]
compound = "COc1ccccc1CN1C(=O)c2ccccc2[C@@H](C(=O)NCCCN(C)C)[C@@H]1c1ccc(CO)cc1"
label_class = "rule met"

[[record]]
compound = "CCOC(=O)C[C@H]1[C@H](OC(=O)c2cc3ccccc3oc2=O)[C@@H](NC(=O)C2CCCCC2)c2cc(OCCCO)ccc2N1C(=O)Cc1ccc(OC)cc1"
label_class = "rule met"

[[record]]
compound = "CCCCN1CC=CC23O[C@@H]4C=CCOC(=O)[C@@H]4[C@H]2C(=O)N(CCO)[C@@H]3C1=O (some centres undefined)"
label_class = "rule not met"

[[record]]
compound = "C=CCC(OC(C)=O)[C@@H]1[C@@H](N(Cc2ccc(-c3cccc(C(F)(F)F)c3)o2)C(=O)Cc2ccc(F)cc2)c2cc(OCCCO)ccc2N1C(=O)c1ccc2ccccc2n1 (some centres undefined)"
label_class = "rule met"

[[record]]
compound = "[N-]=[N+]=NCc1ccccc1C[C@]1(C(=O)NCc2ccccc2)N=C(c2ccc(OCCCO)cc2)O[C@H]1c1ccccc1CN=[N+]=[N-]"
label_class = "rule met"

[[record]]
compound = "C=CCC(OC(C)=O)[C@@H]1[C@@H](N(Cc2cc3ccccc3o2)C(=O)Cc2ccc(OC)cc2)c2cc(OCCCO)ccc2N1C(=O)Cc1ccc2ccccc2c1 (some centres undefined)"
label_class = "rule met"

[[record]]
compound = "CC(C)C[C@@H]1NC(=O)C([C@@H](C)OCc2ccccc2)NC(=O)[C@@]23C(=O)N[C@@H](Cc4ccccc4)C2[C@H](C)[C@@]2(C)O[C@H]2C3/C=C/CC/C=C/CNC1=O (some centres undefined)"
label_class = "rule met"

[[record]]
compound = "CC(C)C(=C=CC[C@@H](O)c1ccccc1OCCO)C[C@@H](O)c1cc(Cl)cc(Cl)c1O"
label_class = "rule not met"

